RECORDED_ENDPOINT: melting point

| STRUCTURE | EXPERIMENTAL_RESULT |
| --- | --- |
| CCCCCNC(=O)Nc1nc(=O)n(Cc2cccnc2)cc1F | 146 to 147.6 °C |
| CSCn1cc(F)c(NC(=O)Nc2ccc(C)cc2)nc1=O | 188.8 to 190.2 °C |
| Nc1nc(=O)n(C2=CCCCC2)cc1F | 190.6 to 192.7 °C |
| CC(C)Cn1cc(F)c(NC(=O)c2cccs2)nc1=O | 125.6 to 127.5 °C |
| O=c1nc(NCc2ccccc2F)c(F)cn1-c1ccsc1 | 75 to 78 °C |
| CCn1cc(F)c(/N=C/N(C)C)nc1=O | 157 to 160 °C |
| Nc1nc(=O)n(COc2ccc(Cl)cc2)cc1F | 240 to 245 °C |
| Cc1ccc(NC(=O)Nc2nc(=O)n(CC3CC3)cc2F)cc1 | 205.6 to 207.5 °C |
| C=C(c1ccccc1)n1cc(F)c(NCc2ccccc2F)nc1=O | 138.9 to 140.2 °C |
| CSCn1cc(F)c(NC(=O)Nc2ccccc2Cl)nc1=O | 181.8 to 183.5 °C |

* * *

RECORDED_ENDPOINT: melting point

| MOLECULE | EXPERIMENTAL_RESULT |
| --- | --- |
| Nc1nc(=O)n(-c2ccc3ccccc3c2)cc1F | 272.8 to 274.2 °C |
| Nc1nc(=O)n(CC2CCCO2)cc1F (stereo not drawn) | 179.2 to 181.1 °C |
| COCCOCn1cc(F)c(N)nc1=O | 160 to 163 °C |
| C=C(c1ccccc1)n1cc(F)c(/N=C/N(C)C)nc1=O | 147 to 147.9 °C |
| CC(C)Cn1cc(F)c(NCc2cccs2)nc1=O | 88.8 to 91.7 °C |
| CC(=O)Nc1nc(=O)n(CC(C)C)cc1F | 134.5 to 136.5 °C |

* * *

Examples of molecules with documented melting point follow.
RECORDED_ENDPOINT: melting point

| STRUCTURE | EXPERIMENTAL_RESULT |
| --- | --- |
| CS(=O)(=O)c1ccc(-n2cc(F)c(NCc3ccccc3F)nc2=O)cc1 | 231.6 to 233.1 °C |
| CN(C)/C=N/c1nc(=O)n(-c2ccc3ccccc3c2)cc1F | 222.4 to 224.4 °C |
| CN(C)CNc1nc(=O)n(CN(C)C)cc1F | 157 to 187 °C (dec.) |
| CC(C)Cn1cc(F)c(NC(=O)c2ccccc2F)nc1=O | 161.3 to 163 °C |
| CCCCCNC(=O)Nc1nc(=O)n(CC2CC2)cc1F | 113 to 114.9 °C |
| COc1ccc(/C=C/n2cc(F)c(NCc3ccccc3F)nc2=O)cc1 | 196.8 to 198.5 °C |
| Nc1nc(=O)n(-c2ccsc2)cc1F | 228 to 229 °C |
| O=c1nc(NCc2ccccc2F)c(F)cn1C1=CCCCC1 | 151.5 to 152.6 °C |
| O=C(Nc1nc(=O)n(CC2CC2)cc1F)OCc1ccccc1 | 228 to 230 °C |
| CCOCCn1cc(F)c(NC(=O)c2ccccc2F)nc1=O | 116.8 to 117.8 °C |

* * *

| MOLECULE | melting point |
| --- | --- |
| CN(C)/C=N/c1nc(=O)n(Cc2ccc(F)c(F)c2)cc1F | 196 to 200 °C |
| CCOC(=O)Nc1nc(=O)n(CC2CC2)cc1F | 90 to 92 °C |
| CN(C)/C=N/c1nc(=O)n(Cc2ccccc2)cc1F | 186 to 188 °C |
| CCOC(=O)Nc1nc(=O)n(CSC)cc1F | 137.1 to 138.8 °C |
| C=Cn1cc(F)c(/N=C/N(C)C)nc1=O | 179.6 to 181.3 °C |
| CCn1cc(F)c(N)nc1=O | 279 °C (dec.) |
| Nc1nc(=O)n(CCc2ccc(Cl)cc2)cc1F | 252 to 254 °C |
| CCC/C=C/n1cc(F)c(N)nc1=O | 152.8 to 153.4 °C |
| O=C(Oc1ccccc1)N(C(=O)Oc1ccccc1)c1nc(=O)n(CC2CC2)cc1F | 159 to 161 °C |
| Cc1ccc(-n2cc(F)c(N)nc2=O)cc1 | 225 to 227 °C |
| CSCn1cc(F)c(N)nc1=O | 128.5 to 130.6 °C |
| CCOCCn1cc(F)c(N)nc1=O | 207.3 to 208.2 °C |
| COc1ccc(/C=C/n2cc(F)c(/N=C/N(C)C)nc2=O)cc1 | 264.3 to 265.3 °C |
| Cc1ccc(NC(=O)Nc2nc(=O)n(Cc3cccnc3)cc2F)cc1 | 178.2 to 180 °C |
| CCOC(=O)C(OCC)n1cc(F)c(N)nc1=O (centres unmarked) | 150 to 154 °C |
| CN(C)/C=N/c1nc(=O)n(C2=CCCCC2)cc1F | 173.2 to 174.4 °C |
| O=C(Nc1ccccc1Cl)Nc1nc(=O)n(Cc2cccnc2)cc1F | 210.5 to 212.3 °C |
| Nc1nc(=O)n(COCc2ccccc2)cc1F | 213 to 217 °C |
| CC(C)Cn1cc(F)c(N)nc1=O | 140 to 142.8 °C |
| N#Cc1cccc(-n2cc(F)c(N)nc2=O)c1 | 175 to 178 °C |
| CCCCCCCCOCn1cc(F)c(N)nc1=O | 166 to 170 °C |
| O=c1nc(NCc2ccccc2F)c(F)cn1-c1ccc2ccccc2c1 | 207.5 to 209 °C |
| Cn1cc(F)c(N)nc1=O | 195 °C (dec.) |
| CCOC(=O)Cn1cc(F)c(/N=C/N(C)C)nc1=O | 196 to 199 °C |
| CC(C)COC(=O)Nc1nc(=O)n(C)cc1F | 126 to 128 °C |
| Nc1nc(=O)n(-c2ccc3c(c2)OCO3)cc1F | 275 to 279 °C |
| CCC/C=C/n1cc(F)c(/N=C/N(C)C)nc1=O | 144.7 to 146.3 °C |
| Nc1nc(=O)n(Cc2ccc(F)cc2F)cc1F | 250 to 254 °C |
| COc1ccc(CCn2cc(F)c(N)nc2=O)cc1 | 168 to 189 °C |
| Nc1nc(=O)n(/C=C/c2ccccc2)cc1F | 256 to 258 °C |
| O=C(Nc1ccccc1Cl)Nc1nc(=O)n(CC2CC2)cc1F | 197 to 199 °C |
| Nc1nc(=O)n(CC2CCOC2)cc1F (centres unmarked) | 255 °C (dec.) |
| CCNc1nc(=O)n(CCOCC)cc1F | 63 to 65 °C |
| Cc1ccc(Cn2cc(F)c(/N=C/N(C)C)nc2=O)cc1 | 178 to 179 °C |
| COc1ccc(-n2cc(F)c(N)nc2=O)cc1 | 230 to 232 °C |
| COc1ccc(/C=C/n2cc(F)c(N)nc2=O)cc1 | 263.3 to 265.1 °C |
| Nc1nc(=O)n(CCCCn2cncn2)cc1F | 197 to 200 °C |
| CCCCCNC(=O)Nc1nc(=O)n(CSC)cc1F | 100.2 to 101.8 °C |
| Nc1nc(=O)n(-c2ccc(Cl)cc2)cc1F | 255 to 257 °C |
| CN(C)/C=N/c1nc(=O)n(-c2ccsc2)cc1F | 211 to 213 °C |
| Nc1nc(=O)n(-c2ccccc2)cc1F | 233 to 235 °C |
| O=C(Nc1nc(=O)n(CC2CCCO2)cc1F)c1ccccc1F (centres unmarked) | 119.8 to 121.9 °C |
| CC(C)(C)C(=O)OCn1cc(F)c(N)nc1=O | 259 to 264 °C |
| COc1ccc(-n2cc(F)c(N)nc2=O)cc1OC | 244.8 to 245.6 °C |

* * *

- System: Mycosphaerella graminicola; anamorph: Septoria tritici; Bayer code SEPTTR
- ASSAY_OVERVIEW: Fungicidal activity: leaf blotch of wheat, greenhouse wheat plants (variety Yuma), percent disease control
- Type: in vivo
- ASSAY_CONTEXT: Zymoseptoria tritici, 72 h, read-out: SEPTTR 100 PPM 3DC (% Disease Control rating)
Each record here notes measured pest or weed control at 100 ppm.

| COMPOUND | pest or weed control at 100 ppm |
| --- | --- |
| CN1CCN(CNc2nc(=O)n(CN3CCN(C)CC3)cc2F)CC1 [Compound 2] | 76 to 100% |
| O=c1nc(NCN2CCOCC2)c(F)cn1CN1CCOCC1 [Compound 1] | 76 to 100% |
| CC(C)COC(=O)Nc1nc(=O)n(C)cc1F [Compound 10] | 51 to 75% |
| CC(C)Cn1cc(F)c(NCc2ccccc2F)nc1=O [Compound 105] | 26 to 50% |
| Nc1nc(=O)n(-c2ccsc2)cc1F [Compound 39] | 76 to 100% |
| CCOC(=O)Nc1nc(=O)n(CC2CC2)cc1F [Compound 80] | 51 to 75% |
| O=C(Oc1ccccc1)N(C(=O)Oc1ccccc1)c1nc(=O)n(CC2CC2)cc1F [Compound 82] | 26 to 50% |
| CC(C)COC(=O)N(C)c1nc(=O)n(C)cc1F [Compound 11] | 0 to 25% |
| CSCn1cc(F)c(/N=C/N(C)C)nc1=O [Compound 24] | 76 to 100% |
| Nc1nc(=O)n(CCCCI)cc1F [Compound 26] | 26 to 50% |
